Listed below: IC50 values for each entry.
# target: mut 5-mer EZH2 (EZH2 Y641N, PRC2 complex) (Homo sapiens, UniProt Q15910, Y641N)
# Sequence (Q15910 whole entry Y641N): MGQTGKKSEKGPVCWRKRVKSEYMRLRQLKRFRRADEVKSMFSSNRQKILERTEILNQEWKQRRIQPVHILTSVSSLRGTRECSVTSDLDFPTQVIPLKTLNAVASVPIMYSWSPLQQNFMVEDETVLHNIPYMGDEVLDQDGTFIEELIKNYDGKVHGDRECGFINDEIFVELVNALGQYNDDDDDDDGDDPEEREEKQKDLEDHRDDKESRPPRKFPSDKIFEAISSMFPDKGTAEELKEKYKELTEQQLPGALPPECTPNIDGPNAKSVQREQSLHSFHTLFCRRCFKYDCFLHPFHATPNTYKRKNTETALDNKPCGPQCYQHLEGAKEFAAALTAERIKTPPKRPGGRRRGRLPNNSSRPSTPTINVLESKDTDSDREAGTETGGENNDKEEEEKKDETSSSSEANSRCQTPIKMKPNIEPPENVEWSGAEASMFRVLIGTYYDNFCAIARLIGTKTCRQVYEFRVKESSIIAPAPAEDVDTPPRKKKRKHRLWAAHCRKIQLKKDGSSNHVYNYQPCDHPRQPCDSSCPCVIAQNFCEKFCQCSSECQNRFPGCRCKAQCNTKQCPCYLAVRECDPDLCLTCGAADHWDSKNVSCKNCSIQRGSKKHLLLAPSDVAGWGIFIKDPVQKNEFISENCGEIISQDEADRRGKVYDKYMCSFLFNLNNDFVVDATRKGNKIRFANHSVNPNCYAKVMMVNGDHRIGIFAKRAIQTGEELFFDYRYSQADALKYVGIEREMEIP
# Sequence (O75530 whole entry partner): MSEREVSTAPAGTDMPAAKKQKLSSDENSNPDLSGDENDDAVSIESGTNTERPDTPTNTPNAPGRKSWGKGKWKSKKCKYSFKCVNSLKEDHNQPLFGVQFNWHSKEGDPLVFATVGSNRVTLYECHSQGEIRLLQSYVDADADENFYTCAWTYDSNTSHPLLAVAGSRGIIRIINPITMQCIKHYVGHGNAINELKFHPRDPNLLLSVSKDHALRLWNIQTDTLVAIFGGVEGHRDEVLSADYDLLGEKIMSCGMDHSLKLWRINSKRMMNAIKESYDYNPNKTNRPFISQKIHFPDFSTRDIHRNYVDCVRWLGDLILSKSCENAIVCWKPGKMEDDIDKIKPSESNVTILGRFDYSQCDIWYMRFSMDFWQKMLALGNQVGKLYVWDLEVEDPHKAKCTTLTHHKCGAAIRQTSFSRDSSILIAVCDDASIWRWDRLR
# Sequence (Q15022 whole entry partner): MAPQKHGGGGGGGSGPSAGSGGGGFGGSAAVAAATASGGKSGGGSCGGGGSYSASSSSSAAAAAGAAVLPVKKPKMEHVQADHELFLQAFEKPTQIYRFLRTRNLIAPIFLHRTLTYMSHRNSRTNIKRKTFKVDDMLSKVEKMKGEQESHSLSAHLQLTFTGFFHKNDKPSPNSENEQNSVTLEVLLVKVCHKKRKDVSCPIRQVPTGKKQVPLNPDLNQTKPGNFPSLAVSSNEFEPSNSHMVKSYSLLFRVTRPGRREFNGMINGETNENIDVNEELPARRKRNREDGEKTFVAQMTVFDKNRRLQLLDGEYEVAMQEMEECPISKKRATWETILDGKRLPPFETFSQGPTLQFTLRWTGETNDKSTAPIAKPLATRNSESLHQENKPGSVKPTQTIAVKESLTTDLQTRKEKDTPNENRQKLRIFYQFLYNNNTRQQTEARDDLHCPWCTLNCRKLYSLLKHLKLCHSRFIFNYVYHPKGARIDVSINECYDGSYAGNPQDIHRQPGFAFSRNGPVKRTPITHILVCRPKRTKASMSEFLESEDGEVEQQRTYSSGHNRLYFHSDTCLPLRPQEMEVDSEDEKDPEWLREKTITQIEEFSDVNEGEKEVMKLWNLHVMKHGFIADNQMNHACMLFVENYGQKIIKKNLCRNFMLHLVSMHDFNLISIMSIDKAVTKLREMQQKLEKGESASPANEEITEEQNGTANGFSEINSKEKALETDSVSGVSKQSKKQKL
# Sequence (Q09028 whole entry partner): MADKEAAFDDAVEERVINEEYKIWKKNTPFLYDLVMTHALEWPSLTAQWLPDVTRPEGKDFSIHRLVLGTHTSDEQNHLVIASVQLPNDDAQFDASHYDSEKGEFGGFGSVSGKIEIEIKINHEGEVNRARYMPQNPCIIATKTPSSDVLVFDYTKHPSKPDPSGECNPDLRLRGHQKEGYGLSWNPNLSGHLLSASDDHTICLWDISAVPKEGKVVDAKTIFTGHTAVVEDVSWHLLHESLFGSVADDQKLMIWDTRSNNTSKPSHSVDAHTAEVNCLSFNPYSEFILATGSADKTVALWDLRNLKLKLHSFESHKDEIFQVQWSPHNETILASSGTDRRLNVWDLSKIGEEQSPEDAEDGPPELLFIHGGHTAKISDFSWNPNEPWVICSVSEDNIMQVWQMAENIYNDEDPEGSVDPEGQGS
# Sequence (Q6ZN18 whole entry partner): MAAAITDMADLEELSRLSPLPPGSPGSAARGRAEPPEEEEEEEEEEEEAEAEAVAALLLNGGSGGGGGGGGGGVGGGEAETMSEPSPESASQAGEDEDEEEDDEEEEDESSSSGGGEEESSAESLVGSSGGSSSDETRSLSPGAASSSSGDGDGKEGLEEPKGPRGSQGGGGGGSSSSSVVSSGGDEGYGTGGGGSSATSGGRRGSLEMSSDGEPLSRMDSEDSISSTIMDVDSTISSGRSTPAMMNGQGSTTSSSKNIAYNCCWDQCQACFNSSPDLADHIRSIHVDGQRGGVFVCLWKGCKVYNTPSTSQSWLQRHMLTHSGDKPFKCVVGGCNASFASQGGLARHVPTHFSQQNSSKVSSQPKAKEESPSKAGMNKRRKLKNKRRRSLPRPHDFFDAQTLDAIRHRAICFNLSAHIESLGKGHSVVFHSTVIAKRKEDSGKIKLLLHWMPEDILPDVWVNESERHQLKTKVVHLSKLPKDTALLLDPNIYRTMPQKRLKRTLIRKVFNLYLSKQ
# measurementNotes: EZH2 Y641N mut 384-well biochemical assay (SPA, 3H-SAM)
quantityKind: IC50 (nM)

>  <smilesStr>
COC1CN([C@H]2CC[C@H]([C@@H](C)c3sc4c(c3C)C(=O)N(Cc3c(C)cc(C)[nH]c3=O)CC4)CC2)C1

>  <testResult>
2.11

$$$$
>  <smilesStr>
CCN(c1sc2c(c1C)C(=O)N(Cc1c(C)cc(C)[nH]c1=O)CC2)[C@H]1CC[C@H](N2CC(OC)C2)CC1

>  <testResult>
7.21

$$$$
